MEASUREMENT_NOTES: Metabolic stability in human liver hepatocytes assessed as compound remaining after 2 hrs
Type: ADME, cell-based, Hepatocyte
MEASUREMENT_CONDITIONS: read-out: Stability
OBSERVABLE: remaining at 2 h (%)

>>> result_number("CC(C)CCOc1ccc2c(c1)c1cc(CC(C)(C)O)ccc1c1[nH]c(-c3c(C#N)cccc3C#N)nc21")
30
>>> result_number("CC(C)(O)C#Cc1ccc2c(c1)c1cc(Cl)ccc1c1nc(-c3c(C#N)cccc3C#N)[nH]c21")
97
>>> result_number("N#Cc1cccc(C#N)c1-c1nc2c3ccc(Cl)cc3c3ccccc3c2[nH]1")
90
>>> result_number("CC(C)(O)Cc1ccc2c(c1)c1cc(OCCC3CC3)ccc1c1[nH]c(-c3c(C#N)cc(F)cc3C#N)nc21")
81
>>> result_number("CC(C)(O)Cc1ccc2c(c1)c1cc(OCCCC(F)(F)F)ccc1c1nc(-c3c(C#N)cccc3C#N)[nH]c21")
98
